In this section, each of the binders is paired with its reported Span.
Target: T1, human Claudin18.2 (human)
T1 construct: also called CLDN18.2
Assay: FACS, Claudin18.2-HEK293 cells

# BINDER, Span
measured = [
    ("humanized 370E2B12C3-VH3 + VL3 (antibody, human IgG1, kappa, V domains shown, humanized, human IgG1/kappa constant regions) VH: QVQLVESGGGVVQPGRSLRLSCAASGFSLTTYGVHWVRQAPGKGLEWVAVIWAGGSTNYNSALMSRFTISRDNSKNTLYLQMNSLRAEDTAVYYCARAAYYGNGLDYWGQGTMVTVSS VL: DVVMTQSPLSLPVTLGQPASISCKSSQTLLNSGNQKNYLTWFQQRPGQSPRRLIYWASTGESGVPDRFSGSGSGTDFTLKISRVEAEDVGVYYCQNAYFYPFTFGGGTKVEIKR", 5520),
    ("humanized 412B6E4-VH1 + VL1.1 (antibody, human IgG1, kappa, V domains shown, humanized, human IgG1/kappa constant regions) VH: EVQLVESGGGLVQPGGSLRLSCAASGFTFSSFGVHWVRQAPGKGLEWVSYISSGSSTIYYAHSVKGRFTISRDNAKNSLYLQMNSLRAEDTAVYYCARFYYGNSFAYWGQGTLVTVSS VL: DIVMTQSPDSLAVSLGERATMSCKSSQSLLNSGNQKNYLTWYQQKPGQPPKMLIYWASTRESGVPDRFSGSGSGTDFTLTISSLQAEDVAVYYCQNAYTYPLTFGQGTKLEIKR", 65900),
    ("chimeric 370E2B12C3 (antibody, human IgG1, kappa, V domains shown, chimeric, human IgG1/kappa constant regions; also called 370E2B12C3-chimeric) VH: QVQLKESGPGLVAPSQSLSITCTVSGFSLTTYGVHWVRQPPGKGLEWLGVIWAGGSTNYNSALMSRVSINKDNSKSQVFIKMNSLQADDTALYYCARAAYYGNGLDYWGQGTTLTVSS VL: DIVMTQSPSSLTVTAGEKVTMSCKSSQTLLNSGNQKNYLTWYQQKPGQPPKLLIYWASTGESGVPDRFTGSGSGTDFTLTISSVQAEDLAVYFCQNAYFYPFTFGGGTKLEIKR", 4570),
    ("chimeric 232C5E3 (antibody, human IgG1, kappa, V domains shown, chimeric, human IgG1/kappa constant regions; also called 232C5E3-Chimeric) VH: QAYLQQSGAELVRSGASVKMSCKASGYTFTSHNIHWIKQTPGKGLEWIGYIYPGNGGTNYNQKFKAKATLTADTSSSTAYMQISSLTSEDSAVYFCARDYYGNSFAYWGQGTLVTVSA VL: DIMMTQSPSSLTETAGEKVSMSCKSSQSLLNSGNQKNYLTWYQQKPGQPPKLLIYWASTRESGVPDRFSGSGSGTDFTLTISSVQAEDLAVYYCQNGYRFPFTFGAGTKLELKR", 69700),
    ("humanized 410H6H3-VH1.2 + VL1.1 (antibody, human IgG1, kappa, V domains shown, humanized, human IgG1/kappa constant regions) VH: EVQLVESGGGLVQPGGSRRLSCAASGFTFSSSGMHWVRQAPGKGLEWVSYISSGSNTIYYADTLKGRFTISRDNAKNTLFLQMNSLRAEDTAVYYCARIYYGNSFVYWGQGTLVTVSS VL: DIVMTQSPDSLAVSLGERATMSCKSSQSLLNSGNQKNYLTWYQQKPGQPPKMLIYWASTRESGVPDRFSGSGSGTDFTLTISSLQAEDVAVYYCQNNYYYPLTFGQGTKLEIKR", 64500),
    ("chimeric 412B6E4 (antibody, human IgG1, kappa, V domains shown, chimeric, human IgG1/kappa constant regions; also called 412B6E4-Chimeric) VH: DVQLVESGGGLVQPGGSRKLSCAASGFTFSSFGVHWVRQAPEKGLEWVAYISSGSSTIYYAHSVKGRFTISRDNPKNTLFLQMTSLGSEDTATYYCARFYYGNSFAYWGQGTLVTVSA VL: DIVMTQSPSSLTVTAGEKVTMSCKSSQSLLNSGNQKNYLTWYQQKPGQPPKMLIYWASTRESGVPDRFTGSGSGTDFTLTISSVQAEDLAVYYCQNAYTYPLTFGAGTRLELKR", 87900),
    ("chimeric 207F8G5 (antibody, human IgG1, kappa, V domains shown, chimeric, human IgG1/kappa constant regions; also called 207F8G5-Chimeric) VH: QAYLQQSGAELVRSGASVKMSCKASGFTFTSYNIHWVKQTPGQGLEWIGYISPGNGGSNYNLKFKDKATLTSATSSSTAYMQISSLTSEDSAVYFCATGRGFAYWGQGTLVTVSA VL: DIVMTQSPSSLTVTPGEKVTMSCKSSQSLFNSGNQKNYLIWYQQKPGQPPKLLIYRASTRDSGVPDRFTGSGSGTDFTLTISNVQAEDLAIYYCQNDYSYPLTFGAGTKLELKR", 11800),
    ("humanized 370E2B12C3-VH3 + VL1 (antibody, human IgG1, kappa, V domains shown, humanized, human IgG1/kappa constant regions) VH: QVQLVESGGGVVQPGRSLRLSCAASGFSLTTYGVHWVRQAPGKGLEWVAVIWAGGSTNYNSALMSRFTISRDNSKNTLYLQMNSLRAEDTAVYYCARAAYYGNGLDYWGQGTMVTVSS VL: DIVMTQSPDSLAVSLGERATINCKSSQTLLNSGNQKNYLTWYQQKPGQPPKLLIYWASTGESGVPDRFSGSGSGTDFTLTISSLQAEDVAVYYCQNAYFYPFTFGGGTKLEIKR", 4650),
]

Cited source for all entries: patent US20220073643A1
